Molecular target: human recombinant αvβ6 protein (Homo sapiens, UniProt P06756+P18564)
Sequence (P06756 31-992 limits assumed): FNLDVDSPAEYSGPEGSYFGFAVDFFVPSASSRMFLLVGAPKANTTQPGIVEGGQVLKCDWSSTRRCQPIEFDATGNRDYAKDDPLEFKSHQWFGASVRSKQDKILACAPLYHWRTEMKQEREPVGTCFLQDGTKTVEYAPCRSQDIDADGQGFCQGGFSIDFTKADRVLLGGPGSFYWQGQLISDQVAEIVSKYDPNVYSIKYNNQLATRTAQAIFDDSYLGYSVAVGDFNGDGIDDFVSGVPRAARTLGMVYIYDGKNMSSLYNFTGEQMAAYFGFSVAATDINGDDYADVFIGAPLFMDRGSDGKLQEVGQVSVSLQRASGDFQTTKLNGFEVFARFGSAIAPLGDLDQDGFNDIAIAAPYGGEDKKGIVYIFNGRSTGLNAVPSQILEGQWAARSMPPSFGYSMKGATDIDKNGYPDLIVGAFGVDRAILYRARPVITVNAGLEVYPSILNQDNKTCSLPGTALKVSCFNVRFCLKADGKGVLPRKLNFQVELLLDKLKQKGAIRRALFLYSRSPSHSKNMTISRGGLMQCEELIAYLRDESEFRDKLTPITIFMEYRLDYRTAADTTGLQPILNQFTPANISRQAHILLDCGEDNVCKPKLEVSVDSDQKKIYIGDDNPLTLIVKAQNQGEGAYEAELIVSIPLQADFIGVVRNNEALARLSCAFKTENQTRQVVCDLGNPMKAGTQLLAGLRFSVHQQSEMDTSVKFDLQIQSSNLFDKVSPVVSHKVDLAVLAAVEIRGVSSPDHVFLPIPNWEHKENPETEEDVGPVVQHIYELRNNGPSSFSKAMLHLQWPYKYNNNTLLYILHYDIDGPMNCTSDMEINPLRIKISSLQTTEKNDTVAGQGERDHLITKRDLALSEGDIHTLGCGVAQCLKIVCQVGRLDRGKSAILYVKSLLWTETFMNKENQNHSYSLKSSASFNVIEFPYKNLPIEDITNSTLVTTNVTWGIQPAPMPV
Sequence (P18564 22-707 limits assumed): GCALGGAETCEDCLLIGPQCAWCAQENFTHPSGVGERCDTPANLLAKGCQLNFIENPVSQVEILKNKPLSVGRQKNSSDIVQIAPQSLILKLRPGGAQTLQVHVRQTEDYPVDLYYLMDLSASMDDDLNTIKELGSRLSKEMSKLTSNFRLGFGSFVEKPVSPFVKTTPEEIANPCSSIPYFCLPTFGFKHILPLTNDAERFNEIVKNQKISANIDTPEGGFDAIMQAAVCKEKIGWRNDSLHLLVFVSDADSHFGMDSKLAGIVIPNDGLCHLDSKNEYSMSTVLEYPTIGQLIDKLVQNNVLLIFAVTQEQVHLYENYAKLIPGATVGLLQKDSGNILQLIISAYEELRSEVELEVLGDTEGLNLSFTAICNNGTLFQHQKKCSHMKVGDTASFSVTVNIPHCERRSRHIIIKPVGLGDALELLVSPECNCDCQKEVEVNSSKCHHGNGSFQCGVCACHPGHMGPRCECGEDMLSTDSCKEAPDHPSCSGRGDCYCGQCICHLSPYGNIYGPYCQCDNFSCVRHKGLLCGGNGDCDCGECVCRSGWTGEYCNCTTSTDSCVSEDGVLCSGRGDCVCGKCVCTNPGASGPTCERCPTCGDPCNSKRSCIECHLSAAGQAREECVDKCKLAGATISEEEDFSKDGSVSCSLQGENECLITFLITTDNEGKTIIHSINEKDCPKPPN
Assay: αvβ6 binding assay using fluorescence polarization (FP), competition with a fluorescently labeled RGD peptide
Settings: 12 concentration points, highest 10 µM, read-out: αvβ6 IC50
Measure: IC50 (nM)

Compound	U	Experimental value
[N-]=[N+]=NCCOCCOCCOCCOCCOc1ccc(-c2ccc([C@H](CC(=O)O)NC(=O)CNC(=O)CCc3ccc4c(n3)NCCC4)cc2)c2ccccc12	nM	1.67
Cc1ccnc(NCCCC(=O)NCC(=O)N[C@@H](CC(=O)O)c2ccc(-c3ccc(OCCOCCOCCOCCOCCN=[N+]=[N-])c4ccccc34)cc2)c1 [SM6.1-αvβ6, reference compound]	nM	1.6

[a] [N-]=[N+]=NCCOCCOCCOCCOCCOc1ccc(-c2ccc([C@H](CC(=O)O)NC(=O)CNC(=O)CCCNc3cc4c(cn3)CCCC4)cc2)c2ccccc12
[b] [N-]=[N+]=NCCOCCOCCOCCOCCOc1ccc(-c2ccc([C@H](CC(=O)O)NC(=O)CNC(=O)CCCc3ccc4c(n3)NCCC4)cc2)c2ccccc12
[Q] Lower IC50: a or b ? Label of pick, please.
[A] a
(a: 1.47 nM, b: 2.29 nM)
